# test_system: T1, His-tagged PCSK9Δhelix (human, UniProt Q8NBP7 31-152; Q8NBP7 168-692)
# T1 construct: Human PCSK9 M1-Q692 with an engineered TEV site, cut by TEV protease; new N-terminus of the catalytic domain is S-A168; also called His-PCSK9Δhelix; not shown: His tag
# T1 sequence (Q8NBP7 31-152, stated change not applied, chain 1 of 2): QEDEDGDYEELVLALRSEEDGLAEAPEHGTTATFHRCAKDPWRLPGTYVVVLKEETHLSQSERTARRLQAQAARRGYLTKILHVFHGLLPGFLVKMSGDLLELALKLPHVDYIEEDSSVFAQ
# T1 sequence (Q8NBP7 other isoform, or with tags, fused parts or gaps mutant, chain 2 of 2): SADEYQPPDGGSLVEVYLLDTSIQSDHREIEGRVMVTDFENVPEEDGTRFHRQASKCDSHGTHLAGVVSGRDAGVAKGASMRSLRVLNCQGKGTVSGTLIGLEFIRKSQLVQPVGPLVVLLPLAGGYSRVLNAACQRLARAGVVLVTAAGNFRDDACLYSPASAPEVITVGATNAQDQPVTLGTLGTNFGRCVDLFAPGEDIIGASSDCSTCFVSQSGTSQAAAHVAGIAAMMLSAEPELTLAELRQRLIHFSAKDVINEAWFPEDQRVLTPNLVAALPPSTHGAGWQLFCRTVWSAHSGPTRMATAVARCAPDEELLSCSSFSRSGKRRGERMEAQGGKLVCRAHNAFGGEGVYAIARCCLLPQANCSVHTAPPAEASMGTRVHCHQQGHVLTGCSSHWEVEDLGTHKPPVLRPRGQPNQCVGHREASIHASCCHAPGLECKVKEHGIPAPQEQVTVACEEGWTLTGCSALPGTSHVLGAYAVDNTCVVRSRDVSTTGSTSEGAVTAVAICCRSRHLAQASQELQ
# experiment: TR-FRET competition (PCSK9Δhelix/Ab20 assay); competitor Ab20
pIC50: −log10 of the molar value. Bridge positions count the residues as written; N and C are the ends. Square brackets hold non-standard residues; d marks the D form. Primed or numbered codes have the meaning given here. Hyp′ = 3-hydroxyproline
metric: pIC50

| binder | metric | experimental_value |
| --- | --- | --- |
| Ac-SGCRL[Hyp′]WNLQRIGLPC-NH2 (disulfide 3-16) [Compound 37 (Ac-SG-CRL(Hyp)WNLQRIGLPC-NH2)] | pIC50 | 4.95 |
